Assay: NCI Yeast Anticancer Drug Screen. Data for the cln2 rad14 strain (AID 165);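 also: 0% = growth equal to vehicle treated cultures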
Conditions: S. cerevisiae cln2 rad14 strain, at 50.0 µM, stronger effect = higher value
Compounds without any hit were thinned out: in the full panel of roughly 79,000, 15% have a hit. The source made the active and inactive calls. Rule as the data show it: active = growth inhibition above about 70%; inactive = the rest.
experimental readout: growth inhibition

Asked: Output measured growth inhibition for this item: "CCCCCCCC/C=C\CCCCCCCC(=O)NCCN(C)C"
Given back: 68.2% (inactive)

Asked: Output measured growth inhibition for this item: OCC1(c2ccccc2)OC1c1ccccc1 (stereo not drawn)
Given back: 69.5% (inactive)

Asked: Output measured growth inhibition for this item: C=C1C(=O)OC2/C=C(\C(=O)O)CC/C=C(\C)CC(OC(=O)/C=C(\C)CC)C12 (stereo not drawn)
Given back: 69.8% (inactive)

Asked: Output measured growth inhibition for this item: "CCOC(=O)/C(C#N)=C/c1coc2cc(C)cc(C)c2c1=O"
Given back: 89.3% (active)

Asked: Output measured growth inhibition for this item: "S=C(SSSSC(=S)N1CCCCC1)N1CCCCC1"
Given back: 9.35% (inactive)

Asked: Output measured growth inhibition for this item: N#CC(C(=O)C(=O)Nc1ccc(Cl)cc1)c1c(Cl)cccc1Cl (stereo not drawn)
Given back: -22.4% (inactive)

Asked: Output measured growth inhibition for this item: C=C(C)C1(C(=O)OCC(Cl)(Cl)Cl)NC(=O)C(NC(=O)COc2ccccc2)=CO1 (stereo not drawn)
Given back: 61.1% (inactive)

Asked: Output measured growth inhibition for this item: "O=C(/C=C\c1cccc2ccccc12)c1ccccn1"
Given back: 87.2% (active)

Asked: Output measured growth inhibition for this item: CCCCCC(O)C(C)CO (stereo not drawn)
Given back: 42.9% (inactive)

* * *

Test: NCI Yeast Anticancer Drug Screen. Data for the cln2 rad14 strain (AID 165);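 also: 0% = growth equal to vehicle treated cultures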
Settings: S. cerevisiae cln2 rad14 strain, at 50.0 µM (retest, dose inferred, filed as 5.0), stronger effect = higher value
About 79,000 compounds went through this panel and 15% of them were active in at least one assay; those are over-represented in the sample as a whole.
experimental readout: growth inhibition (%)
// note: answer is a bare numeric in %

Examples with answers:
>  <compound>
C=C1CC2(OC1=O)C(=O)N(C)c1ccccc12 (stereo unspecified)

>  <result>
22

$$$$
>  <compound>
O=C1c2ccccc2-c2nc3ncccc3cc21

>  <result>
63

$$$$
>  <compound>
O=[N+]([O-])C1CCCC(C2=CSC3CCCCC3N2)C1 (stereo unspecified)

>  <result>
16

$$$$
>  <compound>
N#CC1C(=O)NC(=O)C(C#N)C1c1c(Cl)cccc1Cl (stereo unspecified)

>  <result>
28

$$$$
>  <compound>
CCN(CC)CC(O)CNc1cc(C)nc(/N=C(\N)Nc2ccc(Cl)c(Cl)c2)n1 (stereo unspecified)

>  <result>
19

$$$$
>  <compound>
c1ccc2c(c1)Sc1nccc3ccnc-2c13

>  <result>
88

$$$$
>  <compound>
C[C@]12CC[C@H]3[C@@H](CCC4=CC(=O)CC[C@@]43C)[C@@H]1CC[C@@H]2C(=O)C=O

>  <result>
21

$$$$
>  <compound>
O=C1c2c(F)c(F)c(F)c(F)c2SC2=NCCN12

>  <result>
98

$$$$

Asked: Output measured growth inhibition for this item: "CCOc1cc2c(cc1O)CC[C@@H]1[C@@H]2CC[C@]2(C)[C@@H](O)CC[C@@H]12"
Given back: 30

Asked: Output measured growth inhibition for this item: "Cc1ccc(S(=O)(=O)N2CCN(C)CC2)cc1"
Given back: 16

Asked: Output measured growth inhibition for this item: "CN(C)NC(=S)C(F)(F)F"
Given back: 85

* * *

Experiment: NCI Yeast Anticancer Drug Screen. Data for the mec2-1 strain (AID 157)
Conditions: S. cerevisiae mec2-1 strain, at 50.0 µM (retest, dose inferred, filed as 5.0)
Procedure: Growth inhibition of yeast strains with defined genetic alterations is measured as a screen for potential anti-cancer activity. Selected strains with alterations in DNA damage repair or cell cycle control were exposed to compounds and growth inhibition was measured relative to vehicle treated controls. The strain used in this assay is mec2-1
About 79,000 compounds went through this panel and 15% of them were active in at least one assay; those are over-represented in the sample as a whole. Calls of active or inactive are those of the source. No stated cut-off is given here; in the data, active means growth inhibition above about 70%; inactive means the rest.
Valid outcomes are listed here; reply with one: active, inactive

The examples below pair each entry with its known result.
>  <compound>
Cc1ccc(SC2=C(N(C)C)C(=O)c3ccccc3C2=O)cc1

>  <label class>
active

$$$$
>  <compound>
Nc1c(Cl)nc(C(F)(F)F)nc1NCc1ccccc1

>  <label class>
active

$$$$
>  <compound>
CN1CC[N+](C)(Cc2ccc(C[N+]3(C)CC[N+](C)(Cc4ccc(CCl)cc4)CC3)cc2)CC1 (stereo unspecified)

>  <label class>
active

$$$$
>  <compound>
O=P1(O)c2ccccc2CS(=O)(=O)Cc2ccccc21

>  <label class>
inactive

$$$$
>  <compound>
N#CC1(C#N)C(C#N)(C#N)C12CCCC2

>  <label class>
inactive

$$$$

Now look at this one.
Asked: Recorded test call requested for COc1ccc(C2NCc3c(sc4c3CCCC4)-n3cccc32)cc1 (stereo unspecified)
Given back: inactive

* * *

Assay: NCI Yeast Anticancer Drug Screen. Data for the mlh1 rad18 strain (AID 175)
Conditions: S. cerevisiae mlh1 rad18 strain growth inhibition; at 50.0 µM (retest, dose inferred, filed as 5.0); stronger effect = higher value
Compounds without any hit were thinned out: in the full panel of roughly 79,000, 15% have a hit.
experimental readout: growth inhibition (%)
// note: answer is a bare numeric in %

Examples with answers:
>  <compound>
CN(NC1OC(=O)c2ccccc21)c1ccc(C(F)(F)F)cc1[N+](=O)[O-] (configuration not stated)

>  <result>
48

$$$$
>  <compound>
CC(C)SC(=S)Nc1ccc(Cl)c([N+](=O)[O-])c1

>  <result>
99

$$$$
>  <compound>
CC(/C=N/NS(=O)(=O)c1ccc(C)cc1)=C(c1ccccc1)c1ccccc1

>  <result>
94

$$$$
>  <compound>
O=C1c2ccccc2Cc2cc(O)ccc21

>  <result>
92

$$$$
>  <compound>
C=CCc1ccc(OC(=O)CCl)c(OC)c1

>  <result>
26

$$$$

Asked: Output measured growth inhibition for this item: "CCCCCCSC(=Cc1cccc[n+]1C)SCCCCCC"
Given back: 97

Asked: Output measured growth inhibition for this item: "Cc1ccc(/C=N/Nc2ccc([N+](=O)[O-])cc2[N+](=O)[O-])cc1"
Given back: -4

* * *

Assay: NCI Yeast Anticancer Drug Screen. Data for the sgs1 mgt1 strain (AID 161);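 also: 0% = growth of cultures given vehicle only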
Details: S. cerevisiae sgs1 mgt1 strain, at 50.0 µM
Compounds without any hit were thinned out: in the full panel of roughly 79,000, 15% have a hit. Active and inactive are the calls of the source. Rule as the data show it: active = growth inhibition above about 70%; inactive = the rest.
Valid outcomes are listed here; reply with one: Y for active, N for inactive

Asked: Recorded test call requested for "O=c1[nH][nH]c(=O)c2c1nc(SCc1ccccc1)n2Cc1ccccc1"
Given back: N

Asked: Recorded test call requested for "CCOC(=O)CC(N)CC(=O)OCC"
Given back: N

Asked: Recorded test call requested for "C(=C/c1ccnc2ccccc12)/c1cccs1"
Given back: Y

Asked: Recorded test call requested for "O=C(OCc1ccc2c(c1)OCO2)c1ccc(Cl)cc1"
Given back: N

Asked: Recorded test call requested for "CNC(=O)c1cc(NC(=O)c2ccc(C(=O)Nc3cc(C(=O)NC)cc(C4=NCCN4)c3)cc2)cc(C2=NCCN2)c1"
Given back: Y

* * *

Assay: NCI Yeast Anticancer Drug Screen. Data for the sgs1 mgt1 strain (AID 161);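 also: 0% = growth of cultures given vehicle only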
Settings: S. cerevisiae sgs1 mgt1 strain, at 50.0 µM (retest, dose inferred, filed as 5.0)
Compounds without any hit were thinned out: in the full panel of roughly 79,000, 15% have a hit. The source made the active and inactive calls. No stated cut-off is given here; in the data, active means growth inhibition above about 70%; inactive means the rest.
Valid outcomes are listed here; reply with one: active, inactive

The examples below pair each entry with its known result.
>  <compound>
O=C(c1ccccc1)N(C(=S)N(C(=O)c1ccccc1)c1ccccc1)c1ccccc1

>  <label class>
inactive

$$$$
>  <compound>
CCOC(=O)C(=Cc1cccnc1C)C(=O)OCC

>  <label class>
inactive

$$$$
>  <compound>
Cc1cc(NC(=S)SCc2ccc3c(c2)OCO3)ccc1Br

>  <label class>
active

$$$$
>  <compound>
O=C1CNC(=O)c2cc(Cl)ccc2N1

>  <label class>
inactive

$$$$
>  <compound>
CCOC(=O)C(Cc1cc(I)c(Oc2ccc(OC)cc2)c(I)c1)NC(C)=O (stereo unspecified)

>  <label class>
active

$$$$

Now look at this one.
Asked: Recorded test call requested for "CC1=C/C(=C(/c2ccc(O)c(C)c2)c2ccccc2C(=O)O)C=CC1=O"
Given back: active

* * *

Test: NCI Yeast Anticancer Drug Screen. Data for the cln2 rad14 strain (AID 165);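 also: 0% = growth equal to vehicle treated cultures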
Settings: S. cerevisiae cln2 rad14 strain, at 50.0 µM
About 79,000 compounds went through this panel and 15% of them were active in at least one assay; those are over-represented in the sample as a whole. Calls of active or inactive are those of the source. No stated cut-off is given here; in the data, active means growth inhibition above about 70%; inactive means the rest.
Valid outcomes are listed here; reply with one: 1 (yes) = active, 0 (no) = inactive

The examples below pair each entry with its known result.
>  <molecule>
CCCCCCCCC(=O)NCCCNCCCNC(=O)CCCCCCCC

>  <label class>
1 (yes)

$$$$
>  <molecule>
O=CC(=O)CC(O)CO (stereo unspecified)

>  <label class>
1 (yes)

$$$$
>  <molecule>
OCCCC(Sc1ccccc1)c1ccccc1 (stereo unspecified)

>  <label class>
0 (no)

$$$$
>  <molecule>
Cc1ccccc1NC(=O)C(=O)C(C#N)c1c(Cl)cccc1Cl (stereo unspecified)

>  <label class>
0 (no)

$$$$
>  <molecule>
COc1cccc2c1C(=O)c1c(O)c3c(c(O)c1C2=O)CC(O)(C(C)=O)CC3OC1CC(NCC2(O)OCC(O)C2O)C(O)C(C)O1 (stereo unspecified)

>  <label class>
1 (yes)

$$$$

Asked: Recorded test call requested for Cc1ccc(C2(c3ccc(F)cc3)OC(=O)c3ccccc32)c(O)c1 (stereo unspecified)
Given back: 1 (yes)

Asked: Recorded test call requested for "CCN(CC)c1ccc(N=Nc2ccc(Br)cn2)c(O)c1"
Given back: 1 (yes)

Asked: Recorded test call requested for Nc1ccccc1SC(C[N+](=O)[O-])c1ccc2c(c1)OCO2 (stereo unspecified)
Given back: 1 (yes)

Asked: Recorded test call requested for "Cc1c(C)c(O)c2c(c1O)C(=O)C=C(Cl)C2=O"
Given back: 1 (yes)

Asked: Recorded test call requested for "COc1ccc(SC2=C(N(C)C(C)=O)C(=O)c3ccccc3C2=O)cc1"
Given back: 1 (yes)

Asked: Recorded test call requested for "C(=C/c1cnnc2ccccc12)/c1ccccn1"
Given back: 0 (no)
